These measurements were taken from paper PMC3817407.

# maps each entry to its fold repression
Biological target: T1, ECF15_524
T1 chain: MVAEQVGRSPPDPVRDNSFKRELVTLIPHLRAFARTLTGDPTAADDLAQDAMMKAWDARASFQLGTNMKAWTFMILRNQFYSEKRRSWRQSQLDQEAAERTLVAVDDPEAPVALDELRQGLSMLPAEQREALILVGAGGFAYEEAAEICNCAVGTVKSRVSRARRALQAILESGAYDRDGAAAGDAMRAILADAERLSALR
Give a plain numeric answer without units written out.

Here's what some known entries look like.
>  <Binder>
AS02_915 (protein) MEKTGQEWVSASVDGETDRQTLAELAADTDSHAKWQRYHLMGDAMRDELPQAMPLDLSARIAAALEDEPTILAPKVEREATQAPSRAVVVPFMRQLGQYGIAAAVALMAVVGVQNYQSTQDDAPLPVLNTRPLVGTATPVSLQTGPVANQNQGNANDQLLEQRRRINAYLQDHMLQQRLNTGAVVDDNSEVTPIPVNR

>  <Measured parameter>
fold repression

>  <Value reported>
2.55

$$$$
>  <Binder>
AS15_436 (protein) MAQSTEPKASPQEATAKGGDNTKGKSRKELQQQIDENLRRVYEEALVQEVPDRFAMLLDQLRQKGTGK

>  <Measured parameter>
fold repression

>  <Value reported>
33.1

$$$$

Attention now shifts to the item below.
Respond only with fold repression recorded for AS33_375 (protein) MMALSKKMLEQEPSEIELLLPWHAAGTLNARDARRVEDALARDPELAKQYAAIRGEYEETIHLNESLGAPSARAMQKLFGAIDAEPARETGSLPLSARIATFFASLSPRTLAWSASLGAVALVLQAGIIGAVLMKTQPTTFQTASLSTSAPITRELGAAVAPARALVRFTPEARVADITALLDSYQASIIGDAKGGMFRLQFDKAMSQDELASLLGRMQREKFVNLAVAAP
14.3
